# study target: muscarinic M2 receptor (Homo sapiens)
# Construct: expressed in transfected cells
# test: R-SAT functional screen, M2
# Format: cell-based
# run conditions: R-SAT; read-out: M2 eff (efficacy)
Classification scheme (Emax): bin A (below 20%), bin B (20% to below 70%), bin C (70% or more)

Exam item: Class? Entry: Clc1ccc2c(c1)C(N1CCNCC1)=Nc1cc(Br)ccc1N2
Marked response: bin B

Exam item: Class? Entry: Clc1ccc2c(c1)N=C(N1CCCCC1)c1ccccc1N2
Marked response: bin A

Exam item: Class? Entry: CC1CN(C2=Nc3cc(Cl)ccc3Nc3ccccc32)CC(C)N1 (centres unmarked)
Marked response: bin C

Exam item: Class? Entry: Clc1ccc2c(c1)Nc1ccc(Cl)cc1C(N1CCNCC1)=N2
Marked response: bin A

Exam item: Class? Entry: O=S(=O)(Oc1ccc2c(c1)C(N1CCNCC1)=Nc1ccccc1N2)C(F)(F)F
Marked response: bin A

Exam item: Class? Entry: Clc1ccc2c(c1)N=C(N1CCNCC1)c1cc(Br)ccc1N2
Marked response: bin A

Exam item: Class? Entry: Ic1ccc2c(c1)N=C(N1CCNCC1)c1ccccc1N2
Marked response: bin C

Exam item: Class? Entry: c1ccc(-c2ccc3c(c2)N=C(N2CCNCC2)c2ccccc2O3)cc1
Marked response: bin B

Exam item: Class? Entry: NC1CCN(C2=Nc3cc(Cl)ccc3Nc3ccccc32)CC1
Marked response: bin C

Exam item: Class? Entry: Fc1ccc2c(c1)N=C(N1CCNCC1)c1cc(Br)ccc1O2
Marked response: bin B

* * *

# study target: hERG (Homo sapiens, UniProt Q12809)
# Sequence (Q12809 whole entry): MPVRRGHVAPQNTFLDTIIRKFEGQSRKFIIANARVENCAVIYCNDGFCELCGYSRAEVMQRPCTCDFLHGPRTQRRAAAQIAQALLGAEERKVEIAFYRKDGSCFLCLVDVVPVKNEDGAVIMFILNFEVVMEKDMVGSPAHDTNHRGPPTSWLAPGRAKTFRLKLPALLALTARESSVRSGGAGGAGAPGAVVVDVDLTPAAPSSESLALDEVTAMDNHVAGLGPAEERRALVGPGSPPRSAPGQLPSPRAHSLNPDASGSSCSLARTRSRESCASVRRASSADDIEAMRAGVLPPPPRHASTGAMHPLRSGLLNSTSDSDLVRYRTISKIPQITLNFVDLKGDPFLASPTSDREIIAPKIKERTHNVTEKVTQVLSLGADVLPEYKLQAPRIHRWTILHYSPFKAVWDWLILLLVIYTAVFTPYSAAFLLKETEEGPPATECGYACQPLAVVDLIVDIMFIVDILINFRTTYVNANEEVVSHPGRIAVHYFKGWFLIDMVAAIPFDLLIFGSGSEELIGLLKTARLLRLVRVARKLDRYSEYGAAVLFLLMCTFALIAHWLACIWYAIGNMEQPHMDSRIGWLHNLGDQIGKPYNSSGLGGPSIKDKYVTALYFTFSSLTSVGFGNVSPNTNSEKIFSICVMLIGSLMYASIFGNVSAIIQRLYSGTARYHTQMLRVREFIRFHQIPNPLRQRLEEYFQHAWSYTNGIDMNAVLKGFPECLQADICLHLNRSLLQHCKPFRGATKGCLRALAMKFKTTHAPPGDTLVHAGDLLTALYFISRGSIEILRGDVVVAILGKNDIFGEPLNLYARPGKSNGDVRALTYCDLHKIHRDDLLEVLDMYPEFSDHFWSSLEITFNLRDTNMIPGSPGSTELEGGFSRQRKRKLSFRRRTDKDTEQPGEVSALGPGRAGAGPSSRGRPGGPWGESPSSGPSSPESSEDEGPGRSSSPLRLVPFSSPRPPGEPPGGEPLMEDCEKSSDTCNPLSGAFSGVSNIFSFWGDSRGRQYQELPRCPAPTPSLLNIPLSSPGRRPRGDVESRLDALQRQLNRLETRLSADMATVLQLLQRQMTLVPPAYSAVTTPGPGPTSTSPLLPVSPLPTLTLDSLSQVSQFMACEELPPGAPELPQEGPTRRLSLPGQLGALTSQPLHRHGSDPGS
# test: hERG assay
measured parameter: pIC50
Keep in mind that pIC50 stands for -log10 of concentration in molar terms.

Exam item: Please give the documented pIC50 of CN1c2ccc(Cl)cc2N=C(N2CCNCC2)c2ccccc21
Marked response: 5.89

Exam item: Please give the documented pIC50 of Cc1cccc2c1Oc1ccc(F)cc1N=C2N1CCNCC1
Marked response: 5.64

Exam item: Please give the documented pIC50 of Cc1cccc2c1Oc1ccc(Cl)cc1N=C2N1CCNCC1
Marked response: 5.70

Exam item: Please give the documented pIC50 of Clc1ccc2c(c1)N=C(N1CCNCC1)c1ccccc1C2
Marked response: 5.92

* * *

For each of the molecules below, state its EC50.
# study target: muscarinic M1 receptor (Homo sapiens, UniProt P11229)
# Construct: expressed in transfected cells
# Sequence (P11229 whole entry): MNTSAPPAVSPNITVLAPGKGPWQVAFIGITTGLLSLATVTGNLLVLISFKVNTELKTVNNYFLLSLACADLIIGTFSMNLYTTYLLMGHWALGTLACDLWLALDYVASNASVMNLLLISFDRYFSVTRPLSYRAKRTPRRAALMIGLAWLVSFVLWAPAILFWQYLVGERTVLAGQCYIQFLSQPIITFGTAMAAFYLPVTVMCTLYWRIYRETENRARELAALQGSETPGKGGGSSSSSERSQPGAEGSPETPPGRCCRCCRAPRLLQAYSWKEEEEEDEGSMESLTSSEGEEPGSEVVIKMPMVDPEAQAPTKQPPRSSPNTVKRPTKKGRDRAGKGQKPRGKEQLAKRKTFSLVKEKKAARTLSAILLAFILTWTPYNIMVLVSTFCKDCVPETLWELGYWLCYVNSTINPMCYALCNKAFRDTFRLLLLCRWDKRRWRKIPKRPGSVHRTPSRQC
# test: R-SAT functional screen, M1
# Format: cell-based
# run conditions: R-SAT; read-out: M1 pEC50 (converted)
Form entry: value (µM) — number only.

Exam item: Please give the documented EC50 of Clc1ccc2c(c1)N=C(NC[C@@H]1CCCN1)c1ccccc1N2
Marked response: 0.501

Exam item: Please give the documented EC50 of FC(F)(F)c1ccc2c(c1)N=C(N1CCNCC1)c1ccccc1N2
Marked response: 0.316

Exam item: Please give the documented EC50 of Ic1ccc2c(c1)N=C(N1CCNCC1)c1ccccc1N2
Marked response: 0.0631

Exam item: Please give the documented EC50 of CN1c2ccc(Cl)cc2N=C(N2CCNCC2)c2ccccc21
Marked response: 0.0794

Exam item: Please give the documented EC50 of Clc1cc2c(cc1Cl)Nc1ccccc1C(N1CCNCC1)=N2
Marked response: 0.0794

Exam item: Please give the documented EC50 of N#Cc1ccc2c(c1)N=C(N1CCNCC1)c1ccccc1N2
Marked response: 0.251

* * *

pIC50: −log10 of the molar value.
Reported pIC50 for target or system CYP 2D6 (Homo sapiens), by entry.

Exam item: # return pIC50 for Cc1cccc2c1Oc1ccc(F)cc1N=C2N1CCNCC1 , test system: CYP 2D6 (Homo sapiens)
Sequence (P10635 whole entry): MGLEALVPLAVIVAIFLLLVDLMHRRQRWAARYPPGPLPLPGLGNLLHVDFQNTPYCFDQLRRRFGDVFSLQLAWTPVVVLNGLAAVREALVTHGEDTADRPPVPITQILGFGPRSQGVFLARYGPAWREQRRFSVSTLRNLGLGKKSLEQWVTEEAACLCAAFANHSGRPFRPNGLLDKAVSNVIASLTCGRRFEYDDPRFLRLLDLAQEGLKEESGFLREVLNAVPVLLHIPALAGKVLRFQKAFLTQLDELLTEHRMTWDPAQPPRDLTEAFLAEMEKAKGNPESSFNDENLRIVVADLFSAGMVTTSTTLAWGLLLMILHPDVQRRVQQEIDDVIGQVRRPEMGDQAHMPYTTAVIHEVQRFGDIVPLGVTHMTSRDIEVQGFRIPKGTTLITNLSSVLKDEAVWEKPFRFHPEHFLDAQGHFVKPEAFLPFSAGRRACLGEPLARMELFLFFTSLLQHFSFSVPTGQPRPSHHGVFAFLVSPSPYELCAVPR
Marked response: < 4.60

Exam item: # return pIC50 for Clc1ccc2c(c1)N=C(N1CCNCC1)c1ccccc1C2 , test system: CYP 2D6 (Homo sapiens)
Marked response: < 5.00

Exam item: # return pIC50 for CN1c2ccc(Cl)cc2N=C(N2CCNCC2)c2ccccc21 , test system: CYP 2D6 (Homo sapiens)
Marked response: < 5.00

* * *

# study target: muscarinic M2 receptor (Homo sapiens, UniProt P08172)
# Construct: expressed in transfected cells
# Sequence (P08172 1-466): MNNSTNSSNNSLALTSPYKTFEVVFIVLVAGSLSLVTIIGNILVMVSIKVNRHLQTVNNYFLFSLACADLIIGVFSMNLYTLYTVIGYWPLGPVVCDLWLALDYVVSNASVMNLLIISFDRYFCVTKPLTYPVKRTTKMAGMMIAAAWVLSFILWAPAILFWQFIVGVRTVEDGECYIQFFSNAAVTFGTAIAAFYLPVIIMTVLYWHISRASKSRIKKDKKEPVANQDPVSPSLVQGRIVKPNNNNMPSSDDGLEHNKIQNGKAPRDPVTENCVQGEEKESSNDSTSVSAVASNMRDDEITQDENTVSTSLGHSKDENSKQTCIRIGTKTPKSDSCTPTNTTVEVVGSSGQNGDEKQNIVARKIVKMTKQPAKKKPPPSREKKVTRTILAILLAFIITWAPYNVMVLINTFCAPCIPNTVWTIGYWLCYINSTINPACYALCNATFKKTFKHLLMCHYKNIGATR
# test: R-SAT functional screen, M2
# Format: cell-based
# run conditions: R-SAT; read-out: M2 eff (efficacy)
measured parameter: Emax (%)
Form entry: value (%) — number only.

Exam item: Please give the documented Emax of Fc1ccc2c(c1)N=C(N1CCNCC1)c1ccccc1O2
Marked response: 48

Exam item: Please give the documented Emax of O=S(=O)(Oc1ccc2c(c1)N=C(N1CCNCC1)c1ccccc1N2)C(F)(F)F
Marked response: 62

Exam item: Please give the documented Emax of FC(F)(F)c1ccc2c(c1)N=C(N1CCNCC1)c1cc(Br)ccc1O2
Marked response: 11

Exam item: Please give the documented Emax of COc1ccc2c(c1)Oc1cc(Cl)ccc1N=C2N1CCNCC1
Marked response: 44

Exam item: Please give the documented Emax of Clc1ccc2c(c1)N=C(N1CCNCC1)c1ccccc1N2Cc1ccccc1
Marked response: 16

Exam item: Please give the documented Emax of Clc1ccc2c(c1)N=C(N1CCNCC1)c1cc(Br)ccc1O2
Marked response: 13

Exam item: Please give the documented Emax of Clc1cccc2c1Nc1ccccc1C(N1CCNCC1)=N2
Marked response: 71

Exam item: Please give the documented Emax of CN(C)CCNC1=Nc2ccccc2Nc2ccccc21
Marked response: 20

Exam item: Please give the documented Emax of Clc1cc2c(cc1Cl)Nc1ccccc1C(N1CCNCC1)=N2
Marked response: 8

Exam item: Please give the documented Emax of Cc1ccc2c(c1)N=C(N1CCNCC1)c1cccc(C)c1O2
Marked response: 46

Exam item: Please give the documented Emax of Clc1ccc2c(c1)N=C(C1CCNCC1)c1ccccc1N2
Marked response: 31

Exam item: Please give the documented Emax of Cc1ccc2c(c1)C(N1CCNCC1)=Nc1cc(Br)ccc1N2
Marked response: 44

Exam item: Please give the documented Emax of Clc1ccc2c(c1)N=C(NC[C@@H]1CCCN1)c1ccccc1N2
Marked response: 23

Exam item: Please give the documented Emax of Cc1ccc2c(c1)C(N1CCNCC1)=Nc1ccccc1N2
Marked response: 9

Exam item: Please give the documented Emax of Cc1cccc2c1Oc1ccc(C(F)(F)F)cc1N=C2N1CCNCC1
Marked response: 75

Exam item: Please give the documented Emax of c1ccc2c(c1)N=C(N1CCNCC1)c1ccccc1O2
Marked response: 58

Exam item: Please give the documented Emax of NC1CCN(C2=Nc3cc(Cl)ccc3Nc3ccccc32)C1 (stereo not drawn)
Marked response: 36

Exam item: Please give the documented Emax of Clc1ccc2c(c1)C(N1CCNCC1)=Nc1ccccc1N2
Marked response: 8

Exam item: Please give the documented Emax of Brc1ccc2c(c1)C(N1CCNCC1)=Nc1ccccc1O2
Marked response: 9

Exam item: Please give the documented Emax of Fc1ccc2c(c1)N=C(N1CCNCC1)c1ccccc1C2
Marked response: 55

Exam item: Please give the documented Emax of Clc1ccc2c(c1)Nc1cc(Cl)ccc1C(N1CCNCC1)=N2
Marked response: 19

Exam item: Please give the documented Emax of COc1ccc2c(c1)Oc1ccc(Br)cc1N=C2N1CCNCC1
Marked response: 21

Exam item: Please give the documented Emax of Clc1ccc2c(c1)Oc1ccccc1C(N1CCNCC1)=N2
Marked response: 53

Exam item: Please give the documented Emax of Clc1ccc2c(c1)N=C(N1CCNCC1)c1cccc(Cl)c1N2
Marked response: 118

* * *

# study target: muscarinic M2 receptor (Homo sapiens)
# Construct: expressed in transfected cells
# test: R-SAT functional screen, M2
# Assay type: cell-based
# run conditions: R-SAT; read-out: M2 eff (efficacy)
Tick 1 (yes) if Emax is 20% or greater. Tick 0 (no) if Emax is less than 20%.

Exam item: For this molecule, is measured Emax 20% or higher? Clc1ccc2c(c1)N=C(NC1CNC1)c1ccccc1N2
Marked response: 0 (no)

Exam item: For this molecule, is measured Emax 20% or higher? COc1ccc2c(c1)Oc1ccc(C)cc1N=C2N1CCNCC1
Marked response: 1 (yes)

Exam item: For this molecule, is measured Emax 20% or higher? Clc1ccc2c(c1)C=C(N1CCNCC1)c1ccccc1N2
Marked response: 0 (no)

Exam item: For this molecule, is measured Emax 20% or higher? CN(C)CCNC1=Nc2cc(F)ccc2Nc2ccccc21
Marked response: 1 (yes)

Exam item: For this molecule, is measured Emax 20% or higher? Clc1ccc2c(c1)N=C(N1CCNCC1)c1ccc(Cl)cc1N2
Marked response: 1 (yes)

Exam item: For this molecule, is measured Emax 20% or higher? Cc1ccc2c(c1)C(N1CCNCC1)=Nc1ccc(Cl)cc1N2
Marked response: 0 (no)

Exam item: For this molecule, is measured Emax 20% or higher? Clc1ccc2c(c1)N=C(N1CCOCC1)c1ccccc1N2
Marked response: 0 (no)

Exam item: For this molecule, is measured Emax 20% or higher? Cc1cccc2c1Nc1ccc(Cl)cc1N=C2N1CCNCC1
Marked response: 1 (yes)

Exam item: For this molecule, is measured Emax 20% or higher? Clc1ccc2c(c1)N=C(N1CCNCC1)c1cc(Cl)ccc1N2
Marked response: 1 (yes)

Exam item: For this molecule, is measured Emax 20% or higher? CNCCNC1=Nc2cc(Cl)ccc2Nc2ccccc21
Marked response: 0 (no)

Exam item: For this molecule, is measured Emax 20% or higher? FC(F)(F)c1ccc2c(c1)N=C(N1CCNCC1)c1ccccc1O2
Marked response: 1 (yes)

Exam item: For this molecule, is measured Emax 20% or higher? Cc1cccc2c1Oc1ccccc1N=C2N1CCNCC1
Marked response: 1 (yes)

// provenance: patent US20090239840A1
